tested on: T. b. brucei; assay: T. b. brucei growth inhibition EC50 assay (resazurin, 72 h); type: cell-based, Trypanosoma brucei brucei Lister 427; conditions: Trypanosoma brucei; 72 h, resazurin; error within ±0.20 (Table 2) or ±0.08 (Table 3) log units; read-out: T.b.b. pEC50 (converted)
endpoint: EC50

Solved cases (4 shown):
compound | EC50
CC(C)=Cc1cccc2c1/C(=N/Nc1ccc(S(=O)(=O)N(C)C)cc1)C(=O)N2 [NEU-4405] | 5.01 µM
O=C1Nc2ccccc2/C1=N/Nc1cc(Cl)cc(Cl)c1 [NEU-2117] | > 39.8 µM
COc1ccc(N/N=C2\C(=O)Nc3ccccc32)cc1 [NEU-2114] | 10 µM
CNS(=O)(=O)c1ccc(N/N=C2\C(=O)Nc3ccccc32)cc1 [NEU-2124] | 5.01 µM

Shift focus to the following entry.
Query: Please give the measured EC50 for this compound: Cc1ccc2c3c(ccc2n1)NC(=O)/C3=N\Nc1ccc(S(N)(=O)=O)cc1 [NEU-5456]
Response: 0.0398 µM
